Origin of values: the supplement of paper PMC12350171

Test system: S. enterica typhimurium tolC KO
METHOD_SUMMARY: growth AUC normalised to DMSO control (median) (fraction of control); higher = less growth inhibition, active = hit call of the paper
TEST_SETTINGS: 20 µM
Where a name gives a salt, the structure may show the parent alone.
Examples of molecules with documented growth AUC normalised to DMSO control follow.
Reply with the value as a number alone.

Challenge: Request the reported growth AUC normalised to DMSO control associated with C[C@@H]1C[C@H]2[C@@H]3C[C@H](F)C4=CC(=O)C=C[C@]4(C)[C@@]3(F)[C@@H](O)C[C@]2(C)[C@@]1(O)C(=O)CO
Response given: 1.01

Challenge: Request the reported growth AUC normalised to DMSO control associated with CCCCNC(=O)NS(=O)(=O)c1ccc(C)cc1 [Tolbutamide]
Response given: 1

Challenge: Request the reported growth AUC normalised to DMSO control associated with NCCc1cc[nH]n1 [Betazole hydrochloride]
Response given: 0.999

----------
System: P. vulgatus RND KO
METHOD_SUMMARY: growth AUC normalised to DMSO control (median) (fraction of control); higher = less growth inhibition, active = hit call of the paper
TEST_SETTINGS: 20 µM
Where a name gives a salt, the structure may show the parent alone.
Examples of molecules with documented growth AUC normalised to DMSO control follow.
Reply with the value as a number alone.

Cc1nccn1CC1CCc2c(c3ccccc3n2C)C1=O (stereo not given) [Ondansetron hydrochloride]
1.01

Challenge: Request the reported growth AUC normalised to DMSO control associated with CCCCCCOc1ccccc1C(N)=O [Exalamide]
Response given: 1.01

Challenge: Request the reported growth AUC normalised to DMSO control associated with CCN(CC)CCOCCOC(=O)C1(c2ccccc2)CCCC1 [Carbetapentane citrate]
Response given: 1.01

Challenge: Request the reported growth AUC normalised to DMSO control associated with O=C(O)CCNC(=O)c1ccccc1 [Betamipron]
Response given: 1

Challenge: Request the reported growth AUC normalised to DMSO control associated with CC(C(=O)O)c1cccc(Oc2ccccc2)c1 (stereo not given) [Fenoprofen calcium salt dihydrate]
Response given: 0.99

----------
System: Shigella flexneri
METHOD_SUMMARY: growth AUC normalised to DMSO control (fraction of control); higher = less growth inhibition, active = hit call of the paper
TEST_SETTINGS: 20 µM
QUANTITY: growth AUC normalised to DMSO control

Here's what some known entries look like.
CC(=O)OCC(=O)[C@@]1(O)[C@H](C)C[C@H]2[C@@H]3CCC4=CC(=O)C=C[C@]4(C)[C@@]3(F)[C@@H](O)C[C@@]21C [Dexamethasone acetate]
1 (inactive)
CC(=O)N(CC(O)CO)c1c(I)c(C(=O)NCC(O)CO)c(I)c(C(=O)NCC(O)CO)c1I (centres undefined) [Iohexol]
0.968 (inactive)
CN1CCc2c(c3ccccc3n2Cc2ccccc2)C1 [Mebhydroline 1,5-naphtalenedisulfonate]
0.96 (inactive)

For the next question, use this compound.
Challenge: Request the reported growth AUC normalised to DMSO control associated with Cc1nnc(NS(=O)(=O)c2ccc(N)cc2)s1
Response given: 0.98 (inactive)

----------
Examples of compounds with documented growth AUC normalised to DMSO control follow.
Tested on: Yersinia pseudotuberculosis
METHOD_SUMMARY: growth AUC normalised to DMSO control (fraction of control); higher = less growth inhibition, active = hit call of the paper
TEST_SETTINGS: 20 µM
Counter-ions that a name gives are not always drawn.
Reply with the value as a number alone.

O=C(O)CCNC(=O)c1ccc(/N=N/c2ccc(O)c(C(=O)O)c2)cc1 [Balsalazide disodium salt]
1
CC(=O)[C@H]1CC[C@H]2[C@@H]3CC=C4C[C@@H](O)CC[C@]4(C)[C@H]3CC[C@]12C [Pregnenolone]
1
CN1[C@@H]2CC[C@H]1C[C@@H](OC(=O)c1c[nH]c3ccccc13)C2 [Tropisetron hydrochloride]
1
CCN(CC)CCOc1ccc(C(=C(Cl)c2ccccc2)c2ccccc2)cc1 [(Z,E) Clomiphene citrate]
1.02
C[C@@H](c1ncncc1F)[C@](O)(Cn1cncn1)c1ccc(F)cc1F [Voriconazole]
1

For the next question, use this compound.
Challenge: Request the reported growth AUC normalised to DMSO control associated with O=C1CC2(CCCC2)CC(=O)N1CCCCN1CCN(c2ncccn2)CC1 [Buspirone hydrochloride]
Response given: 1
